B1: ESRRG (parent)
chain: YSCPATNECEITKRRRKSCQACRF

Variants of: B1
test.details: protein stability index of a GFP-peptide fusion (GPS, HEK-293T) (PSI 1-6); higher = more stable;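 also: lentivirally expressed fusions sorted by FACS into six bins by GFP to DsRed ratio, PSI derived from sequencing read proportions per bin multiplied by bin number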
condition.notes: c terminus: a fixed tail appended
measurement.type: protein stability index

>>> result("T6D")
3.71
>>> result("C3I")
3.37
>>> result("R15W")
2.81
>>> result("A5W")
1.51
>>> result("C9M")
3.59
>>> result("C22Q")
3.67
>>> result("N7P")
3.55
>>> result("I11S")
3.63
>>> result("A5D")
3.38
>>> result("T12E")
3.75
>>> result("A21H")
4.06
>>> result("C19R")
3.72
>>> result("C19W")
3.15
>>> result("C3V")
4.16
>>> result("Q20C")
2.67
>>> result("P4W")
1.47
>>> result("T12N")
3.59
>>> result("C9Y")
2.69
>>> result("K13I")
3.15
>>> result("C9N")
3.18
>>> result("S18Y")
2.87
>>> result("P4G")
2.93
>>> result("F24M")
3.89
>>> result("S18W")
2.93
>>> result("I11K")
3.25
>>> result("T12V")
3.33
>>> result("C19L")
3.14
>>> result("R14V")
3.03
>>> result("R23Q")
3.69
>>> result("T6Q")
3.42
>>> result("A5Y")
3.05
>>> result("R14F")
3.19
>>> result("R15I")
3.32
>>> result("K17L")
3.06
>>> result("C22G")
3.38
>>> result("E8P")
3.26
>>> result("T6M")
3.38
>>> result("S18P")
3.66
>>> result("I11H")
4.47
>>> result("E10W")
2.22
>>> result("A21D")
3.49
>>> result("R23K")
3.33
>>> result("C19K")
3.94
>>> result("Y1T")
4.35
>>> result("C19A")
3.83
>>> result("N7A")
2.64
>>> result("C9D")
3.4
>>> result("K17A")
3.17
>>> result("R16M")
3.07
>>> result("C3G")
3.44
>>> result("E8F")
1.91
>>> result("R23L")
2.73
>>> result("C9S")
3.66
>>> result("S18M")
3.38
>>> result("T12G")
3.41
>>> result("C3N")
3.79
>>> result("C9G")
3.82
>>> result("F24S")
3.89
>>> result("C19I")
2.94
>>> result("R15M")
2.96
>>> result("F24I")
3.67
>>> result("T6S")
3.1
>>> result("T6H")
3.65
>>> result("K17H")
3.82
>>> result("N7T")
3.61
>>> result("N7M")
2.96
>>> result("A21V")
3.2
>>> result("R15P")
3.28
>>> result("S18K")
3.51
>>> result("N7C")
2.42
>>> result("C22S")
3.9
>>> result("F24E")
4.19
>>> result("K13T")
3.2
>>> result("S2I")
1.92
>>> result("P4S")
3.11
>>> result("N7D")
3.31
>>> result("C9P")
3.5
>>> result("K17F")
2.69
>>> result("F24T")
4.12
>>> result("R15N")
3.62
>>> result("A5C")
3.43
>>> result("T12R")
3.56
>>> result("K13H")
3.44
>>> result("P4F")
2.39
>>> result("C9K")
3.91
>>> result("N7I")
2.83
>>> result("E10H")
3.08
>>> result("A21M")
2.46
>>> result("R15F")
2.96
>>> result("C19P")
3.35
>>> result("Y1S")
4.28
